Target: UniProt:P00489
Sequence (P00489 whole entry): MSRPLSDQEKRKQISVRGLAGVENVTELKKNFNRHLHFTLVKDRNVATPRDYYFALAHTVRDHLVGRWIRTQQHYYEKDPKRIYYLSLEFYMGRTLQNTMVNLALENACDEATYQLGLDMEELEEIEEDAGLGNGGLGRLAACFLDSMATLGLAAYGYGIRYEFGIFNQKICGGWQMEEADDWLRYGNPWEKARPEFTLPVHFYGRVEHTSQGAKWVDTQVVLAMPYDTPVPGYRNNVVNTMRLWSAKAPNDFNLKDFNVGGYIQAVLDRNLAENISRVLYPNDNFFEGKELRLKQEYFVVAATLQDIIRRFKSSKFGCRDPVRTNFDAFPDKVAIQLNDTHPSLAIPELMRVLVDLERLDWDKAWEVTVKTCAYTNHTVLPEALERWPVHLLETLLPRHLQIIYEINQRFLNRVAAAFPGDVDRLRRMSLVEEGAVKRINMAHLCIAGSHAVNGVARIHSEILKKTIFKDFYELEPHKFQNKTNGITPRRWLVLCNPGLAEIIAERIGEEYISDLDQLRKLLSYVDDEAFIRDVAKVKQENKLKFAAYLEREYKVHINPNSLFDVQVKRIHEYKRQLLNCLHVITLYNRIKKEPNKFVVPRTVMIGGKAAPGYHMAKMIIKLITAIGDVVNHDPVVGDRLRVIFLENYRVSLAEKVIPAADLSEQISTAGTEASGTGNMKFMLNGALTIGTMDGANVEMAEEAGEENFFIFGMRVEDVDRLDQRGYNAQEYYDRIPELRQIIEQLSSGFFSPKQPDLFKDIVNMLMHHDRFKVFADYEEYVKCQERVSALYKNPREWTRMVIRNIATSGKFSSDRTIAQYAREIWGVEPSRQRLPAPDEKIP
metric: Ki (µM)
Answer with a number only, understood to be in µM.

Notebook: pull reported Ki for UniProt:P00489, entry CCCCCc1cc2cn([C@@H]3O[C@H](CO)[C@@H](O)[C@H](O)[C@H]3O)c(=O)nc2o1
33.4
